# tested system: GDP-bound KRAS wild-type protein (Homo sapiens)
# Sequence (P01116 1-188 isoform P01116-2): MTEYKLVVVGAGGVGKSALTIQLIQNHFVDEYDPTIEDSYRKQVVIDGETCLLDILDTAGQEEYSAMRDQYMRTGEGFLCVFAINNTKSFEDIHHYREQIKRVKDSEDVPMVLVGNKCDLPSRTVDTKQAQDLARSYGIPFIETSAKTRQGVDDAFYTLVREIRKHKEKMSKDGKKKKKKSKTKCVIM
# assay remarks: Binding to KRAS by surface plasmon resonance (SPR), dissociation constant KD
# assay setup: Single Cycle Kinetics
pKd: −log10 of the molar value.
Outcome: 1 for pKd of at least 9; 0 for anything lower.

Recorded results for 3 compounds are shown here.
{"chemical smiles": "CCCO[C@@H]1C[C@H]2C(=O)NC3(CC(C)(C)C3)C(=O)N(C)[C@@H](C3CCCC3)C(=O)N(C)[C@H](C(=O)N(C)CC)CC(=O)N(C)[C@@H](COCC)C(=O)N[C@@H]([C@@H](C)CC)C(=O)N3C[C@@H](F)C[C@H]3C(=O)N(C)[C@H]3C/C=C\\CCN(C3=O)[C@@H](Cc3ccc(C(F)(F)F)cc3)C(=O)N(C)CC(=O)N[C@@H](CCc3cc(F)c(C(F)(F)F)c(F)c3)C(=O)N2C1", "tested system": "GDP-bound KRAS wild-type protein (Homo sapiens)", "category label": 1}
{"chemical smiles": "CCC[C@H]1C(=O)N[C@@H]([C@@H](C)CC)C(=O)N(C)CC(=O)N(C)[C@H]2C/C=C\\CCN(C2=O)[C@@H](Cc2ccc(C(F)(F)F)cc2)C(=O)N(C)CC(=O)N[C@@H](CCc2ccc(C(F)(F)F)c(OC)c2)C(=O)N2CC[C@H](OC)[C@H]2C(=O)N(C)C2(CCC2)C(=O)N(C)[C@@H](C2CCCC2)C(=O)N(C)[C@H](C(=O)N(C)C)CC(=O)N1C", "tested system": "GDP-bound KRAS wild-type protein (Homo sapiens)", "category label": 1}
{"chemical smiles": "CCO[C@@H]1C[C@H]2C(=O)NC3(CCC3)C(=O)N(C)[C@@H](C3CCCC3)C(=O)N(C)[C@H](C(=O)N(C)C)CC(=O)N(C)[C@@H](CC)C(=O)N[C@@H]([C@@H](C)CC)C(=O)N3CCCC[C@H]3C(=O)N(C)[C@H]3C/C=C\\CCN(C3=O)[C@@H](Cc3ccc(C(F)(F)F)cc3)C(=O)N(C)CC(=O)N[C@@H](CCc3cc(F)c(C(F)(F)F)c(F)c3)C(=O)N2C1", "tested system": "GDP-bound KRAS wild-type protein (Homo sapiens)", "category label": 0}

Q: Identify whether the reported pKd of the following compound is 9 or greater: CCO[C@@H]1C[C@H]2C(=O)NC3(CCC3)C(=O)N(C)[C@@H](C3CCCC3)C(=O)N(C)[C@H](C(=O)N3CCOCC3)CC(=O)N(C)[C@@H](COC3CC3)C(=O)N[C@@H]([C@@H](C)CC)C(=O)N(C)CC(=O)N(C)[C@H]3CCCCCN(C3=O)[C@@H](Cc3ccc(C(F)(F)F)cc3)C(=O)N(C)CC(=O)N[C@@H](CCc3cc(F)c(C(F)(F)F)c(F)c3)C(=O)N2C1
Ans: 1

Q: # repeat for CCC[C@H]1C(=O)N[C@@H]([C@@H](C)CC)C(=O)N(C)CC(=O)N(C)[C@H]2C/C=C\CCN(C2=O)[C@@H](Cc2ccc(C)cc2)C(=O)N(C)CC(=O)N[C@@H](CCc2cc(F)c(C(F)(F)F)c(F)c2)C(=O)N2CC3(CC3)C[C@H]2C(=O)NC2(CCC2)C(=O)N(C)[C@@H](C(CC)CC)C(=O)N(C)[C@H](C(=O)N(C)C)CC(=O)N1C
Ans: 1
